TEST_TARGET: T1, GFP-9S library array, motif 4 ND N98W;D124V (synthetic construct, N98W;D124V)
T1 chain: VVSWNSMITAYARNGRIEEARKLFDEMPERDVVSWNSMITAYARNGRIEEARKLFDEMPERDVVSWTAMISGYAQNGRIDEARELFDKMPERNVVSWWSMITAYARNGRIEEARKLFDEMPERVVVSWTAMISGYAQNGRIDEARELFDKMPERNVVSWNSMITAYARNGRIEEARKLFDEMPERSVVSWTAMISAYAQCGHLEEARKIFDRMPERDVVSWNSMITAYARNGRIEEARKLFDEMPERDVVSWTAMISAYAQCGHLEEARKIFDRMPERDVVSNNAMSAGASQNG
METHOD_SUMMARY: high-throughput RNA pulldown from lysate on Ni-NTA beads; HRP: 50 mM Tris pH 8, 150 mM NaCl, 1 mM beta-mercaptoethanol, 50 ug/ml BSA, 3 ug/ml yeast RNA, 0.5% heparin; ITC and FP: Tris pH 8, 200 mM KCl, 5% glycerol; MST: 50 mM Tris pH 8, 200 mM NaCl, 1 mM DTT, BSA, heparin, 0.05% Tween 20
CONDITION_SET: tags: N-terminal His-eGFP; label: 5' IRDye 800CW
Reported values of Kd for individual entries
Field format: number, assumed nM, no unit text.

AUUAUACGUGA (ssRNA) [IR-rpoA-U]; 100

--- query ---
Reported Kd of AUUAAACGUGA (ssRNA) [IR-rpoA-A] : 95.6
